- assayed-target: recombinant human enzyme CK-1δ (Homo sapiens)
- Sequence (P48730 whole entry): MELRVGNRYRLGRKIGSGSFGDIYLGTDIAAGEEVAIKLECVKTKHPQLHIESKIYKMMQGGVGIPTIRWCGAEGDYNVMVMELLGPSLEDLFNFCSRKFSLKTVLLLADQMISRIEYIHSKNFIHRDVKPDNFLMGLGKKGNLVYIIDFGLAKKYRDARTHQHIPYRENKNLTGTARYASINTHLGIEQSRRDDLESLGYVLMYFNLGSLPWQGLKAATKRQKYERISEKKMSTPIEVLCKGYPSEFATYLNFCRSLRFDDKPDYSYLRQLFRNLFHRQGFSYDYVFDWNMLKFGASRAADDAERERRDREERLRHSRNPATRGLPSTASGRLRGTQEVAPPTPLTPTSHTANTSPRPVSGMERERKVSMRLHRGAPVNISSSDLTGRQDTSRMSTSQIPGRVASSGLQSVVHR
- assay-info: Enzyme inhibition assay, Luminometer Kinase-GLO method, CK-1δ
- assay-context: casein substrate, 4 μM ATP, 60 minutes at 30° C.; read-out: Inhibitory Concentration 50 (IC50) CK-1δ
IC50: recorded values
Please reply with the bare figure in nM and do not write the unit itself.

Some compounds with known IC50 results, for comparison:
| compound | IC50 / nM |
| --- | --- |
| CCOc1ccc2nc(NC(=O)Cc3cc(OC)c(OC)c(OC)c3)sc2c1 [Compound 56] | 1430 |
| O=C(Nc1nc2ccccc2s1)C(c1ccccc1)c1ccccc1 [Compound 33] | 1960 |
| Cc1ccc2nc(NC(=O)Cc3cccc(Cl)c3)sc2c1 [Compound 5] | 83 |
| COc1ccc2nc(NC(=O)Cc3cc(OC)c(OC)c(OC)c3)sc2c1 [Compound 55] | 6650 |
| COc1ccccc1CC(=O)Nc1nc2ccc(Br)cc2s1 [Compound 32] | 260 |
| COc1ccc2nc(NC(=O)Cc3ccccc3Cl)sc2c1 [Compound 49] | 9710 |
| CCOc1ccc2nc(NC(=O)Cc3ccccc3OC)sc2c1 [Compound 52] | 5760 |
| COc1ccc(CC(=O)Nc2nc3ccc(C(F)(F)F)cc3s2)cc1 [Compound 3] | 33 |

O=C(Cc1ccccc1Cl)Nc1nc2ccc(C(F)(F)F)cc2s1 [Compound 7] tested on recombinant human enzyme CK-1δ (Homo sapiens) gave IC50: 68

O=C(Cc1cccc(Cl)c1)Nc1nc2ccc(OC(F)(F)F)cc2s1 [Compound 23] tested on recombinant human enzyme CK-1δ (Homo sapiens) gave IC50: 540

O=C(Cc1ccccc1)Nc1nc2ccccc2s1 [Compound 14, N-(benzothiazole-2-yl)-2-phenylacetamide] tested on recombinant human enzyme CK-1δ (Homo sapiens) gave IC50: 330

O=C(CNC(=O)c1ccccc1)Nc1nc2ccccc2s1 [Compound 36] tested on recombinant human enzyme CK-1δ (Homo sapiens) gave IC50: 7290

###

- assay-info: in vitro
- assay-context: pig, PAMPA, pH 7.4
recorded-metric: Papp at […] (×10⁻⁶ cm/s)
Please reply with the bare figure in ×10⁻⁶ cm/s and do not write the unit itself.

| structure-smiles-string | value-unit | Papp at […] |
| --- | --- | --- |
| O=C(Cc1cccc(Cl)c1)Nc1nc2ccccc2s1 | ×10⁻⁶ cm/s | 10.6 |
| O=C(Cc1ccccc1)Nc1nc2ccc(C(F)(F)F)cc2s1 | ×10⁻⁶ cm/s | 10.4 |
| COc1ccc2nc(NC(=O)Cc3ccccc3OC)sc2c1 | ×10⁻⁶ cm/s | 11.2 |

Next, consider the following molecule.
Noted for "COc1cccc(CC(=O)Nc2nc3ccc(C(F)(F)F)cc3s2)c1" : its Papp at […] reads 11.2

FYI, the data here is from patent US9592224B2.
